- TESTED ON: UniProtKB Q5VWK5
- Sequence (Q5VWK5 whole entry): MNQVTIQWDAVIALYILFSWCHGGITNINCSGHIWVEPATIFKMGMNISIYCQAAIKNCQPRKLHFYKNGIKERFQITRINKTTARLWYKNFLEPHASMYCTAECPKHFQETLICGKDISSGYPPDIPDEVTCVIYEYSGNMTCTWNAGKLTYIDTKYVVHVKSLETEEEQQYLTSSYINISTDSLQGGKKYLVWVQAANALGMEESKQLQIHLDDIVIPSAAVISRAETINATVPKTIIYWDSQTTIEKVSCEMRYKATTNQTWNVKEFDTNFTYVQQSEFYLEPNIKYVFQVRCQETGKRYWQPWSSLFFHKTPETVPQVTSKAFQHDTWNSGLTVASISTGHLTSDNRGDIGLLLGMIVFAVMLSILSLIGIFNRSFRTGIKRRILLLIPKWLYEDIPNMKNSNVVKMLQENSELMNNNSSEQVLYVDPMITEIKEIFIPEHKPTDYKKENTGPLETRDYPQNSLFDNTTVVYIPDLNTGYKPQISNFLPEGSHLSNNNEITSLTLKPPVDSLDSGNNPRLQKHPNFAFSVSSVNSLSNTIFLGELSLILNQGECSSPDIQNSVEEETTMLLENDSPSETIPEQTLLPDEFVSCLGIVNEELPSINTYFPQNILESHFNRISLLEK
- RUN DESCRIPTION: Inhibition of interleukin-23 binding to human interleukin-23 receptor incubated for 2 hrs by competitive binding ELISA
Listed here: items and their measured IC50.

{"QUERY SMILES": "CC(=O)N[C@@H](CS)C(=O)N[C@@H](CCCNC(=N)N)C(=O)N[C@@H](CC(=O)O)C(=O)N[C@@H](Cc1c[nH]c2ccccc12)C(=O)N[C@@H](CCC(N)=O)C(=O)N[C@@H](CS)C(=O)N[C@@H](Cc1ccc(O)cc1)C(=O)N[C@@H](Cc1c[nH]c2ccccc12)C(=O)N[C@H](CCCNC(=N)N)C(=O)N[C@H](CCCCN)C(=O)N[C@@H](Cc1ccccc1)C(=O)NCC(=O)NCCOCCC(=O)N[C@H](CCCCN)C(N)=O", "IC50": "> 1000 nM"}
{"QUERY SMILES": "CC(=O)NCCCC[C@H](NC(=O)[C@](C)(CCCCN)NC(=O)[C@H](Cc1ccc2ccccc2c1)NC(=O)[C@@H](NC(=O)[C@H](CCC(N)=O)NC(=O)[C@H](Cc1c[nH]c2ccccc12)NC(=O)[C@@H](NC(=O)[C@H](CCC(N)=O)NC(=O)[C@@H](NC(C)=O)C(C)(C)S)[C@@H](C)O)C(C)(C)S)C(=O)N[C@@H](CC(N)=O)C(=O)NCC(N)=O", "IC50": "> 10000 nM"}
{"QUERY SMILES": "CC(C)[C@H](NC(=O)[C@H](Cc1c[nH]c2ccccc12)NC(=O)[C@H](CC(=O)O)NC(=O)[C@H](C)NC(=O)[C@@H](N)CS)C(=O)N[C@@H](CS)C(=O)N[C@@H](Cc1ccc(O)cc1)C(=O)N[C@@H](Cc1ccc2ccccc2c1)C(=O)N[C@@H](Cc1cnc[nH]1)C(=O)N[C@H](C(=O)N[C@@H](Cc1ccccc1)C(=O)NCC(N)=O)[C@@H](C)O", "IC50": "500 to 1000 nM"}
